biological target: UniProt:Q01726; assay: Agonistic activity against human melanocortin receptor (hMC1R) for cAMP accumulation at a concentration of 50 uM; type: functional
Sequence (Q01726 whole entry, looked up): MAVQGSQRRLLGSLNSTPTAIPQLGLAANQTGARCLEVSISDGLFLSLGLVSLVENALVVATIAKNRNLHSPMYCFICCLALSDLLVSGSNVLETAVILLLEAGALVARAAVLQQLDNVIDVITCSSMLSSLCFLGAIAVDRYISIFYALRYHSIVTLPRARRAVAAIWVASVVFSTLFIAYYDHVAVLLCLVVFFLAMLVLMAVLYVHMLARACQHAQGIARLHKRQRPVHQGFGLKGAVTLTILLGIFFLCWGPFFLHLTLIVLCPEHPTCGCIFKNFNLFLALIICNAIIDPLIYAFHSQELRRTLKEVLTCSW
Here the recorded cAMP accumulation is given for each entry.
Value expressed in %; do not type the unit.

{"molecule": "CCCCC(=O)N[C@@H]1CC(=O)NCCCC[C@@H](C(N)=O)NC(=O)[C@H](Cc2c[nH]c3ccccc23)NC(=O)[C@@H](CCCN=C(N)N)NC(=O)[C@H](Cc2ccccc2)NC(=O)C2(CCc3cc(Cl)ccc3C2)NC1=O (mixture of isomers)", "readout.unit": "%", "measured": 50}
{"molecule": "CCCCC(=O)N[C@@H]1CC(=O)NCCCC[C@@H](C(N)=O)NC(=O)[C@H](Cc2c[nH]c3ccccc23)NC(=O)[C@@H](CCCNC(N)=O)NC(=O)[C@H](Cc2ccccc2)NC(=O)C2(CCc3c(Cl)cccc3C2)NC1=O (single isomer, unassigned; form 2)", "readout.unit": "%", "measured": 0}
{"molecule": "CCCCC(=O)N[C@@H]1CC(=O)NCCCC[C@@H](C(N)=O)NC(=O)[C@H](Cc2c[nH]c3ccccc23)NC(=O)[C@@H](CCCN=C(N)N)NC(=O)[C@H](Cc2ccccc2)NC(=O)C2(CCc3c(Cl)cccc3C2)NC1=O (single isomer, unassigned; form 2)", "readout.unit": "%", "measured": 60}
{"molecule": "CCCCC(=O)N[C@H]1CC(=O)NCCCC[C@@H](C(N)=O)NC(=O)[C@H](Cc2c[nH]c3ccccc23)NC(=O)[C@H](CCCN=C(N)N)NC(=O)[C@@H](Cc2ccccc2)NC(=O)[C@@]2(CCc3c(C)cccc3C2)NC1=O (mixture of isomers)", "readout.unit": "%", "measured": 80}

# cAMP accumulation of CCCCC(=O)N[C@@H]1CC(=O)NCCCC[C@@H](C(N)=O)NC(=O)[C@H](Cc2c[nH]c3ccccc23)NC(=O)[C@@H](CCCN=C(N)N)NC(=O)[C@H](Cc2ccccc2)NC(=O)C2(CCc3c(Br)cccc3C2)NC1=O (single isomer, unassigned; form 1) = 80

# cAMP accumulation of CCCCC(=O)N[C@@H]1CC(=O)NCCCC[C@@H](C(N)=O)NC(=O)[C@H](Cc2c[nH]c3ccccc23)NC(=O)[C@@H](CCCNC(N)=O)NC(=O)[C@H](Cc2ccccc2)NC(=O)C2(CCc3c(Cl)cccc3C2)NC1=O (single isomer, unassigned; form 1) = 0

# cAMP accumulation of CCCCC(=O)N[C@@H]1CC(=O)NCCCC[C@@H](C(N)=O)NC(=O)[C@H](Cc2c[nH]c3ccccc23)NC(=O)[C@@H](CCCN=C(N)N)NC(=O)[C@H](Cc2ccccc2)NC(=O)C2(CCc3cccc(Br)c3C2)NC1=O (mixture of isomers) = 60

# cAMP accumulation of CCCCC(=O)N[C@@H]1CC(=O)NCCCC[C@@H](C(N)=O)NC(=O)[C@H](Cc2c[nH]c3ccccc23)NC(=O)[C@@H](CCCN=C(N)N)NC(=O)[C@H](Cc2ccccc2)NC(=O)C2(CCc3c(Br)cccc3C2)NC1=O (single isomer, unassigned; form 2) = 70

---

target: UniProt Q01726; assay: Agonistic activity against human melanocortin receptor (hMC1R) for cAMP accumulation at a concentration of 50 uM; format: functional
reported.metric: cAMP accumulation (%)
Value expressed in %; do not type the unit.

{"compound": "CCCCC(=O)N[C@@H]1CC(=O)NCCCC[C@@H](C(N)=O)NC(=O)[C@H](Cc2c[nH]c3ccccc23)NC(=O)[C@@H](CCCN=C(N)N)NC(=O)[C@H](Cc2ccccc2)NC(=O)C2(CCc3c(Cl)cccc3C2)NC1=O (mixture of isomers)", "cAMP accumulation, %": 30}
{"compound": "CCCCC(=O)N[C@@H]1CC(=O)NCCCC[C@@H](C(N)=O)NC(=O)[C@H](Cc2c[nH]c3ccccc23)NC(=O)[C@@H](CCCN=C(N)N)NC(=O)[C@H](Cc2ccccc2)NC(=O)C2(CCc3cc(Br)ccc3C2)NC1=O (mixture of isomers)", "cAMP accumulation, %": 60}

# cAMP accumulation of CCCCC(=O)N[C@@H]1CC(=O)NCCCC[C@@H](C(N)=O)NC(=O)[C@H](Cc2c[nH]c3ccccc23)NC(=O)[C@@H](CCCN=C(N)N)NC(=O)[C@H](Cc2ccccc2)NC(=O)C2(CCc3c(Cl)cccc3C2)NC1=O (single isomer, unassigned; form 1) = 20

---

biological target: Melanocortin receptor 5 (Homo sapiens, UniProt P33032); test: Agonistic activity against human melanocortin receptor (hMC5R) for cAMP accumulation at a concentration of 50 uM; format: functional
Sequence (P33032 whole entry): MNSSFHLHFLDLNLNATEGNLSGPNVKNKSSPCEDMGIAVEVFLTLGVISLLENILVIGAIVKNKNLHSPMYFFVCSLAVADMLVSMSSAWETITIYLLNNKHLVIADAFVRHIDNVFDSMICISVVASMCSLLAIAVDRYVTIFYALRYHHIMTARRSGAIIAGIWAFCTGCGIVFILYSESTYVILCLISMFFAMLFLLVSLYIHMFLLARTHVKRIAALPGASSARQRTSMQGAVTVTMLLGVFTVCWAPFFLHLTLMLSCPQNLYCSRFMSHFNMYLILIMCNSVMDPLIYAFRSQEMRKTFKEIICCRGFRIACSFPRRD
Here the recorded cAMP accumulation is given for each entry.
Value expressed in %; do not type the unit.

{"molecule": "CCCCC(=O)N[C@@H]1CC(=O)NCCCC[C@@H](C(N)=O)NC(=O)[C@H](Cc2c[nH]c3ccccc23)NC(=O)[C@@H](CCCN=C(N)N)NC(=O)[C@H](Cc2ccccc2)NC(=O)C2(CCc3c(Cl)cccc3C2)NC1=O (single isomer, unassigned; form 2)", "cAMP accumulation, %": 38}
{"molecule": "CCCCC(=O)N[C@@H]1CC(=O)NCCCC[C@@H](C(N)=O)NC(=O)[C@H](Cc2c[nH]c3ccccc23)NC(=O)[C@@H](CCCN=C(N)N)NC(=O)[C@H](Cc2ccccc2)NC(=O)C2(CCc3c(Cl)cccc3C2)NC1=O (single isomer, unassigned; form 1)", "cAMP accumulation, %": 75}
{"molecule": "CCCCC(=O)N[C@@H]1CC(=O)NCCCC[C@@H](C(N)=O)NC(=O)[C@H](Cc2c[nH]c3ccccc23)NC(=O)[C@@H](CCCNC(N)=O)NC(=O)[C@H](Cc2ccccc2)NC(=O)C2(CCc3c(Cl)cccc3C2)NC1=O (single isomer, unassigned; form 1)", "cAMP accumulation, %": 0}

Melanocortin receptor 5 (Homo sapiens, UniProt P33032) cAMP accumulation of CCCCC(=O)N[C@@H]1CC(=O)NCCCC[C@@H](C(N)=O)NC(=O)[C@H](Cc2c[nH]c3ccccc23)NC(=O)[C@@H](CCCNC(N)=O)NC(=O)[C@H](Cc2ccccc2)NC(=O)C2(CCc3c(Cl)cccc3C2)NC1=O (single isomer, unassigned; form 2) is 0

---

molecular target: Melanocyte-stimulating hormone receptor (Homo sapiens, UniProt Q01726); experiment: Agonist activity at human melanocortin receptor (hMC1R).; assay type: functional
Sequence (Q01726 whole entry): as the sequence (Q01726 whole entry, looked up) above
Please assign n whenever EC50 is at or above 5 nM, and y whenever it is below.

Consider the worked cases shown below.
{"compound": "CCCCC(=O)N[C@H]1CC(=O)NCCCC[C@@H](C(N)=O)NC(=O)[C@H](Cc2c[nH]c3ccccc23)NC(=O)[C@H](CCCNC(=N)N)NC(=O)[C@@H](Cc2ccccc2)NC(=O)C2(CCc3c(cccc3C(C)C)C2)NC1=O (mixture of isomers)", "target.desc": "Melanocyte-stimulating hormone receptor (Homo sapiens, UniProt Q01726)", "group": "n"}
{"compound": "CCCCC(=O)N[C@H]1CC(=O)NCCCC[C@@H](C(N)=O)NC(=O)[C@H](Cc2c[nH]c3ccccc23)NC(=O)[C@H](CCCN=C(N)N)NC(=O)[C@@H](Cc2ccccc2)NC(=O)C2(CCc3c(cccc3N(C)C)C2)NC1=O (mixture of isomers)", "target.desc": "Melanocyte-stimulating hormone receptor (Homo sapiens, UniProt Q01726)", "group": "n"}

Inquiry: Here's an entry: `CCCCC(=O)N[C@H]1CC(=O)NCCCC[C@@H](C(N)=O)NC(=O)[C@H](Cc2c[nH]c3ccccc23)NC(=O)[C@H](CCCNC(=N)N)NC(=O)[C@@H](Cc2ccccc2)NC(=O)[C@H](Cc2cnc[nH]2)NC1=O` . Is its EC50 below 5 nM?
Reply text: y

Inquiry: Here's an entry: `CCCCC(=O)N[C@H]1CC(=O)NCCCC[C@@H](C(N)=O)NC(=O)[C@H](Cc2c[nH]c3ccccc23)NC(=O)[C@H](CCCN=C(N)N)NC(=O)[C@@H](Cc2ccccc2)NC(=O)[C@H](Cc2ccc(C(F)(F)F)cc2)NC1=O` . Is its EC50 below 5 nM?
Reply text: n

Inquiry: Here's an entry: `CCCCC(=O)N[C@H]1CC(=O)NCCCC[C@@H](C(N)=O)NC(=O)[C@H](Cc2c[nH]c3ccccc23)NC(=O)[C@H](CCCNC(=N)N)NC(=O)[C@@H](Cc2ccccc2)NC(=O)C2(Cc3ccccc3C2)NC1=O` . Is its EC50 below 5 nM?
Reply text: n

Inquiry: Here's an entry: CCCCC(=O)N[C@H]1CC(=O)NCCCC[C@@H](C(N)=O)NC(=O)[C@H](Cc2c[nH]c3ccccc23)NC(=O)[C@H](CCCN=C(N)N)NC(=O)[C@@H](Cc2ccccc2)NC(=O)[C@@]2(CCc3c(cccc3OC)C2)NC1=O (mixture of isomers) . Is its EC50 below 5 nM?
Reply text: n

Inquiry: Here's an entry: `CCCC[C@H](NC(C)=O)C(=O)N[C@H]1CC(=O)NCCCC[C@@H](C(N)=O)NC(=O)[C@H](Cc2c[nH]c3ccccc23)NC(=O)[C@H](CCCN=C(N)N)NC(=O)[C@@H](Cc2ccccc2)NC(=O)[C@H](CCC(N)=O)NC1=O` . Is its EC50 below 5 nM?
Reply text: y

Inquiry: Here's an entry: CCCCC(=O)N[C@H]1CC(=O)NCCCC[C@@H](C(N)=O)NC(=O)[C@H](Cc2c[nH]c3ccccc23)NC(=O)[C@H](CCCN=C(N)N)NC(=O)[C@@H](Cc2ccccc2)NC(=O)[C@@H]2c3ccccc3CN2C1=O (single isomer, unassigned; form 2) . Is its EC50 below 5 nM?
Reply text: y
